B1: Osa-1-4 twister ribozyme (parent)
chain: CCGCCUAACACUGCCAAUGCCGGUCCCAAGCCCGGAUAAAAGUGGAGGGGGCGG

variants of: B1; assay: self-cleavage, relative activity (ratio to wild type); higher = more cleavage; co-transcriptional
REPORTED_ENDPOINT: self-cleavage
One number for each entry.

CCGCCUAACACUGCCAAUGCCGGUCCCAAGCCCGGACAAAAGUGGACGGGGCGG : 0.15

# per-item lookup of self-cleavage; items listed below
1. CCGCCUAACACUGCCAAUGCCGGGGCCAAGCCCGGAUAAAAGUGGAGGGGGCGG
2. CCGCCUAACACUGACAAUGCCGGUCCCAAGCCCGGAUAAAAGUGGGGGGGGCGG
3. CCGCCUAACACUGCCAACGCCGGUCCCAAGCCCGGAUAAAAUUGGAGGGGGCGG
4. CCGCCUAACACUGCCAACGCCGGUCCCCAGCCCGGAUAAAAGUGGAGGGGGCGG
5. CCGCCUAACACUGCCAAUGCCGGGCCCAAGCCCAGAUAAAAGUGGAGGGGGCGG
6. CCGCCUAACACUGCCAAUGCCGCUCCCAAGCCCGGAUAAAAGUGGAGGGGGAGG

1. 0.02
2. 0.03
3. 0.23
4. 0.72
5. 0.03
6. 0.06

Lab note: each variant below needs its self-cleavage filled in.
1. CCGCCUAACACUGCCAAUGCCGGUCCCAAGCCAGGAUAAAAGUGGAGGGGUCGG
2. CCGCCUAACACUGCCAAUGCCGGUCCCAAGCCCGGAUAGAAGUGGAGGGGGCAG
3. CCGCCUAACACUGGCAAUGCCGGUCCCAAGCACGGAUAAAAGUGGAGGGGGCGG
4. CCGCCUAACGCUGCCGAUGCCGGUCCCAAGCCCGGAUAAAAGUGGAGGGGGCGG
5. CCGCCUAACACUGCCAAUGACGGGCCCAAGCCCGGAUAAAAGUGGAGGGGGCGG
6. CCGCCUAACACUGCCAAUGCCGGUCCCAAGCCCGGACAAAAGUGGAAGGGGCGG

1. 0.05
2. 0.55
3. 0.03
4. 0.89
5. 0.06
6. 0.44

Provide reported self-cleavage for each item, in the same order as listed.
1. CCGCCUAAUACGGCCAAUGCCGGUCCCAAGCCCGGAUAAAAGUGGAGGGGGCGG
2. CCGCCUAACACUGCCAAUGCCGGUCACAAGGCCGGAUAAAAGUGGAGGGGGCGG

[0.06, 0.03]
